Cited source: the supplement of paper PMC10567573

B1: TOR1AIP2 (parent)
chain: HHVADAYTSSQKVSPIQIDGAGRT

- Variants of: B1
- Procedure summary: protein stability index of a GFP-peptide fusion (GPS, HEK-293T) (PSI 1-6); higher = more stable;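 note: lentivirally expressed fusions sorted by FACS into six bins by GFP to DsRed ratio, PSI derived from sequencing read proportions per bin multiplied by bin number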
- Cond: c terminus: a fixed tail appended
Readout kind: protein stability index
Number only, no unit.

Worked examples, 5 variants total:
D19C; 3.1
R23P; 3.01
H2D; 4.75
D5F; 2.24
Q11R; 2.95

Using the record for `Y7F` , report its protein stability index.
2.73

Now give it for `T8V` too.
3.3

Now give it for `T8N` too.
3.88

Now give it for `I18N` too.
3.96

Now give it for `Q11K` too.
3.56

Now give it for `D5G` too.
3.97
